Entry source: patent US20180291096A1

# ASSAYED_SYSTEM: T1, recombinant human IL-23 (hrIL-23), produced at Centocor (human, UniProt P29460 23-328)
# T1 sequence 1: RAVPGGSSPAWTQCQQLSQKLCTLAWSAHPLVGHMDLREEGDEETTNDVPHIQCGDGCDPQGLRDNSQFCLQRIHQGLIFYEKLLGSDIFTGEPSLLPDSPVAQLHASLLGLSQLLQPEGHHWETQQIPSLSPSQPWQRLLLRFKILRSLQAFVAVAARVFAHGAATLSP
# T1 sequence 2: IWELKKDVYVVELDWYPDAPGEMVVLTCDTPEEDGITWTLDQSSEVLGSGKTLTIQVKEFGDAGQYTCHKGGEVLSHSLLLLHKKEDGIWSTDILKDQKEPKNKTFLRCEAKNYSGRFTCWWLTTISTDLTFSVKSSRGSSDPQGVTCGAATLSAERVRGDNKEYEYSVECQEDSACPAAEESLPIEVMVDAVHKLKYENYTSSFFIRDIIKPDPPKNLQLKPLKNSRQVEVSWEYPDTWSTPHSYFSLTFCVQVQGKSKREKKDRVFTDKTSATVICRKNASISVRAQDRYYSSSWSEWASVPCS
# ASSAY_TEXT: cell-based or functional assay

- BINDER: "MOR05042 mAb (antibody, human IgG1, V domains shown) VH: QVELVQSGAEVKKPGESLKISCKGSGYSFSNYWIGWVRQMPGKGLEWMGIISPTGSSTWYSPSFQGQVTISADKSISTAYLQWSSLKASDTAMYYCARWYYKPFDVWGQGTLVTVSS VL: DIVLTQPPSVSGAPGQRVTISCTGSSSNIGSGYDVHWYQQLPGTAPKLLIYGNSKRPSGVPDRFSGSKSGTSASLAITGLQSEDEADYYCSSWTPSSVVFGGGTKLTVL"
  MEASUREMENT_UNIT: "µg/mL"
  IC50, inhibition of IL-17 production: 0.00127
- BINDER: "MOR05062 mAb (antibody, human IgG1, V domains shown) VH: QVELVESGGGLVQPGGSLRLSCAASGFTFSSFGMSWVRQAPGKGLEWVSNISSSGSSTYYADSVKGRFTISRDNSKNTLYLQMNSLRAEDTAVYYCARYWGTPYLMQFDNWGQGTLVTVSS VL: DIALTQPASVSGSPGQSITISCTGTSSDVGGYNSVSWYQQHPGKAPKLMIYSVSSRPSGVSNRFSGSKSGNTASLTISGLQAEDEADYYCQTYYFSYSGPVFGGGTKLTVL"
  MEASUREMENT_UNIT: "µg/mL"
  IC50, inhibition of IL-17 production: 0.199
- BINDER: "MOR04658 mAb (antibody, human IgG1, V domains shown) VH: QVELVESGGGLVQPGGSLRLSCAASGFTFSSFGMSWVRQAPGKGLEWVSNISSSGSSTYYADSVKGRFTISRDNSKNTLYLQMNSLRAEDTAVYYCARYWGTPYLMQFDNWGQGTLVTVSS VL: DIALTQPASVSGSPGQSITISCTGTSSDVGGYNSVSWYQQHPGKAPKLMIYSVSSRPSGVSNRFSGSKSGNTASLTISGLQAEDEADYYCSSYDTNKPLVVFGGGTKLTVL"
  MEASUREMENT_UNIT: "µg/mL"
  IC50, inhibition of IL-17 production: 1.96
